# test.system: GPR55 (Homo sapiens, UniProt Q9Y2T6)
# Construct: 3 × HA-tagged human GPR55 stably expressed in HEK293 cells
# Sequence (Q9Y2T6 whole entry): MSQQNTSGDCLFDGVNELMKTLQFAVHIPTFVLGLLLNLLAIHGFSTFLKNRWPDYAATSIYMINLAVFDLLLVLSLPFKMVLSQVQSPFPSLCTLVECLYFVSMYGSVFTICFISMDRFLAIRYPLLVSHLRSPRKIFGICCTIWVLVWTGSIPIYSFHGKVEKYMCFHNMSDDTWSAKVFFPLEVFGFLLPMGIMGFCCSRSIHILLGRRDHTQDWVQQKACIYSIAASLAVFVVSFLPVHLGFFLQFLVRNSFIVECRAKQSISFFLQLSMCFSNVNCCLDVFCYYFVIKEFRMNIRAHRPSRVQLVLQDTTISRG
# experiment.description: inhibition of uptake of the fluorescent GPR55 agonist T1117 in hGPR55-HEK293 cells (live-cell imaging)
measured.property: pIC50
Answers are plain numbers, as −log10 of the molar value.

Notebook: pull reported pIC50 for GPR55 (Homo sapiens, UniProt Q9Y2T6), entry COc1ccc(C[C@H](C)NC[C@H](O)c2cc(O)cc(O)c2)c2ccccc12 [(R,S′)-MNF, (R,S′)-4′-methoxy-1-naphthylfenoterol]
5.89
